# target_system: High affinity nerve growth factor receptor (Homo sapiens, UniProt P04629)
# Sequence (P04629 whole entry, the tested form may be a part): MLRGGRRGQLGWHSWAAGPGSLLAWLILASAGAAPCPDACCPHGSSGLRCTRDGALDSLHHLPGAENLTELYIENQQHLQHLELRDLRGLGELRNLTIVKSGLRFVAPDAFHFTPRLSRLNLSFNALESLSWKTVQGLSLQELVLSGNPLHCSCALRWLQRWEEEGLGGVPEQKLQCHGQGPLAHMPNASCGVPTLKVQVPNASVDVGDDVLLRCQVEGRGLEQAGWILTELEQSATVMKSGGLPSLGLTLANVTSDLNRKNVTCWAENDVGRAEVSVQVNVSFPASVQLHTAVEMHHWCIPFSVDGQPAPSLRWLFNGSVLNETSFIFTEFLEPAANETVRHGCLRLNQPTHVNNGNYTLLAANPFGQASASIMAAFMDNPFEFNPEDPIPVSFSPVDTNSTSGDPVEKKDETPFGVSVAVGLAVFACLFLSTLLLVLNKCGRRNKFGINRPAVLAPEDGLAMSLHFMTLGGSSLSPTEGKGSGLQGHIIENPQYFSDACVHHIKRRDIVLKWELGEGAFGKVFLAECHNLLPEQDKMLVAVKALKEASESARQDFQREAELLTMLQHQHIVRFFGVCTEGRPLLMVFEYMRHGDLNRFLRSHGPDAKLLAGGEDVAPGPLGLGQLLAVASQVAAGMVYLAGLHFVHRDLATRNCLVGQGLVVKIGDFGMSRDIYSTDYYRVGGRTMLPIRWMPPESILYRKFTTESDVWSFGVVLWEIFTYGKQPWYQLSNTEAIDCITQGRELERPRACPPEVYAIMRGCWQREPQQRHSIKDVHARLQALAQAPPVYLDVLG
# assay_remarks: Inhibition of human N- terminal GST-tagged TrkA cytoplasmic domain (436 to 790 residues) expressed in baculovirus infected sf21 cells using biotinylated peptide substrate incubated for 15 mins followed by addition of ATP measured after 30 mins by TR-FRET assay
pIC50: −log10 of the molar value.
measured_metric: pIC50

# chemical_structure, target_system, pIC50
rows = [
    ("O=C(N/N=C/c1ccc(O)c(O)c1)c1ccccc1O", "High affinity nerve growth factor receptor (Homo sapiens, UniProt P04629)", 5.59),
]

I = O=C(N/N=C/c1ccc(O)cc1O)c1ccccc1O
II = O=C(N/N=C/c1ccc(O)c(O)c1O)c1ccccc1O
Please tell me which of the two, I or II , has the higher reported pIC50 value. Respond with the label that goes with your answer. I
(I: 6.64, II: 6.42)

* * *

# target_system: High affinity nerve growth factor receptor (Homo sapiens, UniProt P04629)
# assay_remarks: Inhibition of human TrkA expressed in human U2OS cells assessed as inhibition of NGF-induced response measured after 1 hr by beta-galactosidase assay
# Type: cell-based
measured_metric: IC50 (µM)

I = COc1ncc(C(=O)C2CC(C(C)C)c3ncncc32)cc1NC(=O)Nc1cc(Cl)cc(Cl)c1 (configuration not stated)
II = CCc1ncc(C(=O)C2CC([C@@H](C)CO)c3ncncc32)cc1NC(=O)Cc1ccc(C(F)(F)F)cc1 (some centres not stated)
Please tell me which of the two, I or II , has the higher reported IC50 value. Respond with the label that goes with your answer. I

Source: ChEMBL document CHEMBL3870334
